Catalogue of binders with associated kon
target: T1, 3×FLAG-IL-6 (human); assay: SPR, 3×FLAG-IL-6 captured by anti-FLAG M2 on protein G, scFv as analyte (1-100 nM)
T1 construct: it may hold the pre-pro-trypsin leader
T1 sequence (chain, as listed by the source limits assumed): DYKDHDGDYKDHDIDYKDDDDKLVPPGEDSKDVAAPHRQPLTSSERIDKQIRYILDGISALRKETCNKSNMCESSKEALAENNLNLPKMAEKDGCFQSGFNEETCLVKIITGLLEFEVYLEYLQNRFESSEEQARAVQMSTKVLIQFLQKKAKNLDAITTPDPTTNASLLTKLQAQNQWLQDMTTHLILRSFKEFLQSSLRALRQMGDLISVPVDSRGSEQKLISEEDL
measured_property: kon (M⁻¹ s⁻¹)

>>> observed_measurement("28D2-L Aha (scFv, azidohomoalanine (Aha) in place of a single Met in the Gly/Ser linker between VL and VH, also called E. coli 28D2 scFv with Aha in the Gly/Ser linker) scFv: MADIQLTQSPSFLSASVGDRVTITCQASEDLFSSLAWYQQKPGKAPKLLIYSASTLASGVPSRFSGSGSGTDFTLTISSLQPEDFATYYCLGLYYYLTPDPIYGFGGGTKVEIKGGGGSGMGGSGGGGSGGGGSEVQLVESGGGLVQPGGSLRLSCTVSGLSLSKNAIAWVRQAPGKGLEWVGIIYAGGATTYASWAKGRFTISRDNSKNTLYLQLNSLRAEDTAVYYCAREYAGDSYYTGYTQLDLWGQGTLVTVSSGPPPPPHHHHHH")
"1.3e+06"
>>> observed_measurement("28D2 N-Aha (scFv, azidohomoalanine (Aha) in place of the single Met, at the N terminus, also called E. coli 28D2 scFv with Aha at the N term) scFv: MEDIQLTQSPSFLSASVGDRVTITCQASEDLFSSLAWYQQKPGKAPKLLIYSASTLASGVPSRFSGSGSGTDFTLTISSLQPEDFATYYCLGLYYYLTPDPIYGFGGGTKVEIKGGGGSGGGGSGGGGSGGGGSEVQLVESGGGLVQPGGSLRLSCTVSGLSLSKNAIAWVRQAPGKGLEWVGIIYAGGATTYASWAKGRFTISRDNSKNTLYLQLNSLRAEDTAVYYCAREYAGDSYYTGYTQLDLWGQGTLVTVSSGPPPPPHHHHHH")
"1.46e+06"
>>> observed_measurement("28D2 humanized scFv (mammalian expressed) (scFv, also called 28D2 scFv) scFv: DIQLTQSPSFLSASVGDRVTITCQASEDLFSSLAWYQQKPGKAPKLLIYSASTLASGVPSRFSGSGSGTDFTLTISSLQPEDFATYYCLGLYYYLTPDPIYGFGGGTKVEIKGGGGSGGGGSGGGGSGGGGSEVQLVESGGGLVQPGGSLRLSCTVSGLSLSKNAIAWVRQAPGKGLEWVGIIYAGGATTYASWAKGRFTISRDNSKNTLYLQMNSLRAEDTAVYYCAREYAGDSYYTGYTQLDLWGQGTLVTVSSGPPPPHHHHHH")
918000
>>> observed_measurement("28D2-C Aha (scFv, azidohomoalanine (Aha) in place of the single Met, at the C terminus) scFv: MAHHHHHHPPPPAAADIQLTQSPSFLSASVGDRVTITCQASEDLFSSLAWYQQKPGKAPKLLIYSASTLASGVPSRFSGSGSGTDFTLTISSLQPEDFATYYCLGLYYYLTPDPIYGFGGGTKVEIKGGGGSGGGGSGGGGSGGGGSEVQLVESGGGLVQPGGSLRLSCTVSGLSLSKNAIAWVRQAPGKGLEWVGIIYAGGATTYASWAKGRFTISRDNSKNTLYLQLNSLRAEDTAVYYCAREYAGDSYYTGYTQLDLWGQGTLVTVSSGM")
"1.45e+06"

Each recorded value in this set is attributed to patent US20160194391A1.
